- Test system: SN12C
- PROTOCOL_TEXT: NCI tumour cell line growth inhibition, 48 h
The source made the active and inactive calls. No stated cut-off is given here; in the data, active = GI50 up to about 1.1 µM and inactive = higher.
Possible outcomes: active, inactive

[[record]]
compound = "O=C1C(Cl)=C(NCCCN2CCOCC2)C(=O)c2c(O)ccc(O)c21"
group = "inactive"

[[record]]
compound = "O=C(O)c1cc(C(=O)C(=O)c2cc(C(=O)O)c(O)c3ccccc23)c2ccccc2c1O"
group = "inactive"

[[record]]
compound = "CCOC(=O)c1ccc(/N=C2/C(=S)N(c3ccc(C(=O)OCC)cc3)C(=N)N2/N=C/c2ccccc2)cc1"
group = "inactive"

[[record]]
compound = "NC(=O)NNC(=O)c1nc[nH]c1[N+](=O)[O-]"
group = "inactive"

[[record]]
compound = "C#CCn1c(=O)c(C#N)c(O)c2cc3ccccc3nc21"
group = "inactive"

[[record]]
compound = "CC(C)(C)c1ccc(OC2CCO2)cc1 (stereo unspecified)"
group = "inactive"

[[record]]
compound = "O=C(c1ccco1)N(C(=S)OCc1ccccn1)c1ccccc1"
group = "inactive"

[[record]]
compound = "CCC(=O)Nc1ccc(N2C(=O)/C(=C/c3ccc(O)c(OC)c3)N=C2c2ccccc2)cc1"
group = "inactive"

[[record]]
compound = "CC(C)C(=O)CC(c1ccc(Cl)cc1)N1N=C(C(C)C)CC1c1ccc(Cl)cc1 (stereo unspecified)"
group = "active"

[[record]]
compound = "CSc1ncc2c(n1)C(C#N)C1Sc3ccccc3N1C2=O (stereo unspecified)"
group = "inactive"

[[record]]
compound = "COc1ccc(OC)c2c3c(ccc12)C(c1ccccc1)OC3=O (stereo unspecified)"
group = "inactive"

[[record]]
compound = "COc1ccc(CC(=O)NCCc2ccc(OC)c(OC)c2OC)cc1"
group = "inactive"

[[record]]
compound = "CCOC(=O)CC1(C(=O)OCC)c2[nH]c3ccccc3c2CCN1Cc1ccccc1 (stereo unspecified)"
group = "inactive"

[[record]]
compound = "C[Si](C)(C)C(CCCCSc1ccccc1)(Sc1ccccc1)Sc1ccccc1"
group = "inactive"

[[record]]
compound = "CO[C@@]12C[C@H](CNC(=O)c3ccc[nH]3)O[C@@H]1NC(=O)N2"
group = "inactive"

[[record]]
compound = "COc1cccc2c1C(=O)c1c(O)c3c(c(O)c1C2=O)C[C@@](O)(C(C)=O)C[C@@H]3OC1CC(N(Cc2ccccc2)Cc2ccccc2)C(O)C(C)O1 (stereo partly specified)"
group = "inactive"


* * *

- Tested on: SN12C
- PROTOCOL_TEXT: NCI tumour cell line growth inhibition, 48 h
Active and inactive are the calls of the source. Rule as the data show it: active = GI50 up to about 1.1 µM and inactive = higher.
READOUT: GI50

[[record]]
smiles_structure = "COc1ccc2c(c1)c1c3n2CCNN=C3CCC1"
result = "> 61.7 µM (inactive)"

[[record]]
smiles_structure = "C[C@H]1C/C=C/[C@H]2[C@@H]3O[C@]3(C)[C@@H](C)[C@H]3[C@H](Cc4ccccc4)NC(=O)[C@]32OC(=O)O/C=C/[C@@](C)(O)C1=O"
result = "3.16 µM (inactive)"

[[record]]
smiles_structure = "Cn1cc(NC(=O)c2cc(NC(=O)CCCCCCCCC(=O)Nc3cc(C(=O)Nc4cc(C(=O)NCCC(N)N)n(C)c4)n(C)c3)cn2C)cc1C(=O)NCCC(=N)N"
result = "23.8 µM (inactive)"


* * *

- Test system: MCF7
- PROTOCOL_TEXT: NCI tumour cell line growth inhibition, 48 h
The source made the active and inactive calls. Rule as the data show it: active = GI50 up to about 1.1 µM and inactive = higher.
The entries below come with measured GI50 values attached.
READOUT: GI50

[[record]]
molecule = "CSc1ncnc2c1cnn2Cc1cn(COCC(O)CO)nn1 (configuration not stated)"
system = "MCF7"
readout = "GI50"
result = "> 100 µM (inactive)"

[[record]]
molecule = "CCOC(=O)c1ccc(/N=C2/C(=S)N(c3ccc(C(=O)OCC)cc3)C(=N)N2/N=C/c2ccccc2)cc1"
system = "MCF7"
readout = "GI50"
result = "6.68 µM (inactive)"

[[record]]
molecule = "C/C(=N/NC(=O)c1ccccc1Nc1ccccc1C(=O)N/N=C(\\C)c1ccc(C)cc1)c1ccc(C)cc1"
system = "MCF7"
readout = "GI50"
result = "14.6 µM (inactive)"

[[record]]
molecule = "C/C(=N/NC(=S)N(Cc1ccccn1)Cc1ccccn1)c1cnccn1"
system = "MCF7"
readout = "GI50"
result = "0.565 µM (active)"

[[record]]
molecule = "Cc1ccc(S(=O)(=O)NC(=O)Nc2cc(Cl)c(S(N)(=O)=O)cc2S(N)(=O)=O)cc1"
system = "MCF7"
readout = "GI50"
result = "> 100 µM (inactive)"

[[record]]
molecule = "Clc1ccc(/N=C/C=C/Nc2ccc(Cl)cn2)nc1"
system = "MCF7"
readout = "GI50"
result = "16.4 µM (inactive)"

[[record]]
molecule = "CN(C)CCCNC1=C(Cl)C(=O)c2c(O)ccc(O)c2C1=O"
system = "MCF7"
readout = "GI50"
result = "1.55 µM (inactive)"

